Cited source for all entries: patent US20230096750A1

Items are presented alongside their recorded pKd.
biological target: dsDNA; assay: Fluorescence titrations (affinity towards dsDNA); format: binding; conditions: affinity towards dsDNA
// returns pKd (minus log10 of molar concentration), number only

In the examples that follow, each entry is paired with its recorded pKd.
compound: CC[n+]1ccc(/C=C2\Sc3ccccc3N2CCCCCCn2cc(CN)nn2)c2ccccc21 [6-TramTO-1 (1)]
pKd: 5.06
//
compound: CC[n+]1ccc(/C=C2\Sc3ccccc3N2C)c2ccccc21 [CH3TO-1 (4), reference compound]
pKd: 4.69
//
compound: CC[n+]1ccc(/C=C2\Sc3ccccc3N2C)c2ccccc21 [CH3TO-3 (6), reference compound]
pKd: 4.35

Now, please, on to the next compound.
Form field pKd, entry CC[n+]1ccc(/C=C/C=C2\Sc3ccccc3N2CCCCCCn2cc(CN)nn2)c2ccccc21.[I-] [6-TramTO-3 (3)] : 4.64
